Assay: in vitro
Conditions: human, liver microsomes
quantity_name: remaining at 0.5 h

Consider the compound shown here: O=C(O)c1ccccc1NC(=O)N1CCC(c2ccccc2C(F)(F)F)CC1 What is its recorded remaining at 0.5 h?
< 30%

###

Target: UniProt P15090
Sequence (P15090 whole entry): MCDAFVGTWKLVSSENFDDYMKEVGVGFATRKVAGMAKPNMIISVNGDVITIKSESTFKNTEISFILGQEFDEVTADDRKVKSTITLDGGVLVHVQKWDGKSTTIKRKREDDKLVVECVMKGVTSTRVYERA
quantity_name: IC50 (µM)
Give just the numeric value; µM need not be written.

• O=C(O)Cc1cn(-c2ccccc2-c2nc(-c3ccc(Cl)cc3)c(-c3ccccc3)s2)nn1 = 2.51
• O=C(O)Cc1cn(-c2ccccc2-c2nc(-c3ccccc3)c(-c3ccccc3)s2)nn1 = 3.98

Turning to the following molecule.
Item O=C(O)Cc1cn(-c2ccccc2-c2nc(-c3ccc4ccccc4c3)c(-c3ccccc3)s2)nn1 has what recorded IC50?
1.26
